The origin of these recorded values is patent US11504441B2.

Kindly state tissue uptake at 4 h for each of the entries shown.
- assay.notes: in vivo
- Set-up: species or system mice
- condition.summary: male, NODSCID 1L2RγKO, mouse, iv, total radioactivity, Thyroid uptake
Hi! Could you send only the number? It should be in %ID/g, unit omitted.

(Q) Could you tell me which tissue uptake at 4 h is on file for O=C(O)CCC[C@H](NC(=O)N[C@@H](CCCCNC(=O)[C@H](Cc1c2ccccc2cc2ccccc12)NC(=O)[C@H]1CC[C@H](CNC(=O)[C@H](CCCCNC(=O)CN2CCN(CC(=O)O)CCN(CC(=O)O)CCN(CC(=O)O)CC2)NC(=O)CNC(=O)CCCc2ccc(Cl)cc2)CC1)C(=O)O)C(=O)O [177Lu-HTK03153, metal not drawn] ?
(A) 3.57

(Q) Using the record for COc1ccc(CCCC(=O)NCC(=O)N[C@@H](CCCCNC(=O)CN2CCN(CC(=O)O)CCN(CC(=O)O)CCN(CC(=O)O)CC2)C(=O)NC[C@H]2CC[C@H](C(=O)N[C@@H](Cc3c4ccccc4cc4ccccc34)C(=O)NCCCC[C@H](NC(=O)N[C@@H](COCC(=O)O)C(=O)O)C(=O)O)CC2)cc1 [177Lu-HTK04028, metal not drawn] , report its tissue uptake at 4 h.
(A) 2.3

(Q) I would be grateful if you could share the reported tissue uptake at 4 h for COc1ccc(CCCC(=O)NCC(=O)N[C@@H](CCCCNC(=O)CN2CCN(CC(=O)O)CCN(CC(=O)O)CCN(CC(=O)O)CC2)C(=O)NC[C@H]2CC[C@H](C(=O)N[C@@H](Cc3c4ccccc4cc4ccccc34)C(=O)NCCCC[C@H](NC(=O)N[C@@H](CCCC(=O)O)C(=O)O)C(=O)O)CC2)cc1 [177Lu-HTK03170, metal not drawn] .
(A) 1.62

(Q) Entry O=C(O)CCC[C@H](NC(=O)N[C@@H](CCCCNC(=O)[C@H](Cc1c2ccccc2cc2ccccc12)NC(=O)[C@H]1CC[C@H](CNC(=O)CN2CCN(CC(=O)O)CCN(CC(=O)O)CCN(CC(=O)O)CC2)CC1)C(=O)O)C(=O)O [177Lu-HTK03149, metal not drawn] : reported tissue uptake at 4 h = ?
(A) 0.07

(Q) Reported tissue uptake at 4 h, molecule COc1ccc(CCCC(=O)NCC(=O)N[C@@H](CCCCNC(=O)CN2CCN(CC(=O)O)CCN(CC(=O)O)CCN(CC(=O)O)CC2)C(=O)NC[C@H]2CC[C@H](C(=O)N[C@@H](Cc3c4ccccc4cc4ccccc34)C(=O)NCCCC[C@H](NC(=O)N[C@@H](CSCC(=O)O)C(=O)O)C(=O)O)CC2)cc1 [177Lu-HTK04048, metal not drawn] : ____
(A) 2.69
